molecular target: PD-1 expressed on cells (human); assay: flow cytometry, Jurkat/PD-1 cells
Sequence (chain, as listed by the source): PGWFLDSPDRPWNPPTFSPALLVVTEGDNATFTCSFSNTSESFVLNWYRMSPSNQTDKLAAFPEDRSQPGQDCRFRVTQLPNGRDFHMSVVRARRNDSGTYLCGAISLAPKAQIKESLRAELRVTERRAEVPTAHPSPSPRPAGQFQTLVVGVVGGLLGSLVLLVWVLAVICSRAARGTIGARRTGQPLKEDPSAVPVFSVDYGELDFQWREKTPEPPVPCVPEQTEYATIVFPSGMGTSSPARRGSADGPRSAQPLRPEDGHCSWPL
PROPERTY NAME: MFI at 50 nM
Could you respond with only the numeric value?

variant PD-L2 IgV-Fc H15Q, Q72H, V89D (Fc fusion) LFTVTVPKELYIIEQGSNVTLECNFDTGSHVNLGAITASLQKVENDTSPHRERATLLEEQLPLGKASFHIPHVQVRDEGQYQCIIIYGDAWDYKYLTLKVKA; 12600

Then this binder:
Quick one: give measured MFI at 50 nM for variant PD-L2 IgV-Fc N24D (Fc fusion) LFTVTVPKELYIIEHGSNVTLECDFDTGSHVNLGAITASLQKVENDTSPHRERATLLEEQLPLGKASFHIPQVQVRDEGQYQCIIIYGVAWDYKYLTLKVKA 1410
